System: NCI/ADR-RES ovarian
Assay: NCI tumour cell line growth inhibition, 48 h
MEASUREMENT_KIND: TGI

Sample answers from the record:
[
  {
    "MOLECULE": "COC(=O)C1=C(O)C(C(=O)OC)[C@]2(O)[C@H](C(=O)OC)[C@H]1C[C@@H](c1ccc(Cl)cc1)[C@H]2C(=O)OC (some centres not stated)",
    "TGI": "> 100 µM"
  },
  {
    "MOLECULE": "COC(=O)c1cc(C)ccc1C1CN=NC12Cc1ccc(C)cc1C2=O (configuration not stated)",
    "TGI": "> 100 µM"
  },
  {
    "MOLECULE": "CC(C)(C)/C(=N\\Nc1nc2ccccc2[nH]1)c1ccccn1",
    "TGI": "> 100 µM"
  }
]

The following molecules each have a reported value; give each one's TGI.
1. C#CCNC(=O)c1cccc2c1cc(C)n2-c1nc2c(c(NCc3ccccc3)n1)CCCC2
2. Cc1cc(Cl)cc2c1NC(=O)C2(O)CC(=O)c1ccco1 (configuration not stated)
3. CCCCC(=O)c1ccc2ccccc2c1O

Given back:
1. 0.101 µM
2. > 100 µM
3. > 100 µM

Items follow; give TGI for each.
1. O=C1Nc2ccccc2C1(c1ccc(O)cc1)c1ccc(O)cc1
2. c1nc(N2CC2)c2cnn(C3CCCCO3)c2n1 (configuration not stated)
3. CN(C)/N=C(/CC(O)(C(F)(F)F)C(F)(F)F)c1ccc([N+](=O)[O-])cc1
4. OC1(c2ccc(Cl)cc2)C(N2CCCC2)c2ccccc2C2=NCCN21 (configuration not stated)

Given back:
1. > 100 µM
2. > 100 µM
3. > 100 µM
4. 59.9 µM

I would be grateful if you could provide TGI for each of the following entries.
1. C[N+]1=C(/C=C/c2ccc(O)c3ncccc23)C(C)(C)c2ccccc21
2. COc1ccc(C(=O)C#Cc2cnc(OC)nc2OC)cc1

Given back:
1. 6.08 µM
2. 79000 µM

* * *

Test system: SK-MEL-28 melanoma
Assay: NCI tumour cell line growth inhibition, 48 h; in the data active means GI50 below about 0.43 µM; inactive means the rest
Hi! Could you answer with just one of these? yes (1) = active, no (0) = inactive

[
  {
    "MOLECULE": "COc1ccc(C(=O)C#Cc2cnc(OC)nc2OC)cc1",
    "CATEGORY": "no (0)"
  },
  {
    "MOLECULE": "CCCn1c(=S)sc2c1nc(C)n1c(Nc3ccccc3)nnc21",
    "CATEGORY": "no (0)"
  },
  {
    "MOLECULE": "C=C(C[C@](O)(C(=O)/C=C/c1ccc(Cl)cc1)C(=O)OC)c1ccccc1",
    "CATEGORY": "no (0)"
  },
  {
    "MOLECULE": "O=C(O)/C=C(\\c1nc2ccc([N+](=O)[O-])cc2[nH]1)c1cc(Cl)ccc1O",
    "CATEGORY": "no (0)"
  },
  {
    "MOLECULE": "Cc1cc2c(cc1Cl)SC1=NN(C)S(=O)N1S2(=O)=O (centres undefined)",
    "CATEGORY": "no (0)"
  },
  {
    "MOLECULE": "Cc1ccc(C(=O)N(CCCN)C(c2oc3cc(Cl)ccc3c(=O)c2Cc2ccccc2)C(C)C)cc1 (centres undefined)",
    "CATEGORY": "no (0)"
  },
  {
    "MOLECULE": "COc1ccc(-c2nc(-c3nc4ccc(Cl)cc4[nH]3)c3ccccn23)cc1",
    "CATEGORY": "no (0)"
  },
  {
    "MOLECULE": "C#CCNC(=O)c1cccc2c1cc(C)n2-c1nc2c(c(NCc3ccccc3)n1)CCCC2",
    "CATEGORY": "yes (1)"
  }
]

Now for a further molecule.
Asked: Outcome? CS(=O)(=O)CCNCc1ccc(-c2ccc3ncnc(Nc4ccc(OCc5ccccc5)cc4)c3c2)o1
Given back: no (0)

* * *

System: HOP-92 NSCLC
Assay: NCI tumour cell line growth inhibition, 48 h; in the data active means GI50 below about 0.43 µM; inactive means the rest
A correct response names exactly one class from 1 (yes) for active, 0 (no) for inactive

Solved entries (count: 8):
[
  {
    "COMPOUND": "OCCCNc1nc(=S)[nH]c2[nH]ncc12",
    "CATEGORY": "0 (no)"
  },
  {
    "COMPOUND": "COc1ccc(-c2nc(-c3nc4ccc(Cl)cc4[nH]3)c3ccccn23)cc1",
    "CATEGORY": "0 (no)"
  },
  {
    "COMPOUND": "CCCCCCCC[C@@H](O)CC(=O)N[C@@H](CC(N)=O)C(=O)N[C@@H](CCC(N)=O)C(=O)N[C@@H](CC(=O)c1cc(C)cc(O)c1C(=O)c1c(O)cccc1O)CC(C)C",
    "CATEGORY": "1 (yes)"
  },
  {
    "COMPOUND": "O=C1CCC(N2C(=O)c3ccccc3C2=O)C(=O)N1CO (centres undefined)",
    "CATEGORY": "0 (no)"
  },
  {
    "COMPOUND": "CC1(C)OC2=C(CC1Br)C(=O)C(=O)c1ccccc12 (centres undefined)",
    "CATEGORY": "0 (no)"
  },
  {
    "COMPOUND": "CCOC1Oc2ccc(C)cc2C(=O)/C1=C\\Nc1ccc(C(N)=O)cc1 (centres undefined)",
    "CATEGORY": "0 (no)"
  },
  {
    "COMPOUND": "O=C(O)CCNC1CCCCC1",
    "CATEGORY": "0 (no)"
  },
  {
    "COMPOUND": "COc1cc2cc(Oc3ccc(NC(=O)Nc4ccc(Cl)c(C(F)(F)F)c4)cc3)c(C)nc2cc1OCCN1CCOCC1",
    "CATEGORY": "0 (no)"
  }
]

Please look at the following compound next.
Asked: How was Nc1nccc(-c2c(-c3ccc(F)cc3)ncn2C2CCC(O)CC2)n1 (centres undefined) classified in this test?
Given back: 0 (no)

* * *

Test system: U251 CNS
Experiment: NCI tumour cell line growth inhibition, 48 h
Field: TGI. Provide a value for each of the molecules that follow.

[
  {
    "MOLECULE": "COC(=O)c1cc(C)ccc1C1CN=NC12Cc1ccc(C)cc1C2=O (centres undefined)",
    "TARGET_SYSTEM": "U251 CNS",
    "TGI": "> 100 µM"
  },
  {
    "MOLECULE": "O=C(O)C(=Cc1ccc(-c2ccccc2)cc1)C(=O)O",
    "TARGET_SYSTEM": "U251 CNS",
    "TGI": "25.9 µM"
  },
  {
    "MOLECULE": "O=c1cc(N2CCNCC2)nc2ccccn12",
    "TARGET_SYSTEM": "U251 CNS",
    "TGI": "> 100 µM"
  },
  {
    "MOLECULE": "Cc1ccc(/C(Cl)=C/C=C(C#N)C#N)cc1",
    "TARGET_SYSTEM": "U251 CNS",
    "TGI": "18.4 µM"
  },
  {
    "MOLECULE": "CCOC(=O)c1oc2cc3c(c4c2c1-c1ccccc1N4C)C=CC(C)(C)O3",
    "TARGET_SYSTEM": "U251 CNS",
    "TGI": "31 µM"
  },
  {
    "MOLECULE": "COc1ccc2c(c1)-c1nc(=S)n(CCCN(C)C)c3ccc([N+](=O)[O-])c(c13)N2",
    "TARGET_SYSTEM": "U251 CNS",
    "TGI": "17.7 µM"
  },
  {
    "MOLECULE": "Cc1ccc(NC(=O)CC(=O)n2nc(C)c(N=Nc3ccccc3C(=O)O)c2C)cc1",
    "TARGET_SYSTEM": "U251 CNS",
    "TGI": "> 100 µM"
  },
  {
    "MOLECULE": "O=C(Nc1ccncc1)C(=O)c1cn(S(=O)(=O)c2cccc(F)c2)c2ccccc12",
    "TARGET_SYSTEM": "U251 CNS",
    "TGI": "> 100 µM"
  },
  {
    "MOLECULE": "COc1ccccc1NC(=S)Nc1cc(C)cc(C)n1",
    "TARGET_SYSTEM": "U251 CNS",
    "TGI": "> 100 µM"
  },
  {
    "MOLECULE": "CCCC(=O)OCC1OC(n2cnc3c(=S)nc[nH]c32)C(OC(=O)CCC)C1OC(=O)CCC (centres undefined)",
    "TARGET_SYSTEM": "U251 CNS",
    "TGI": "> 100 µM"
  }
]

Value sought for every listed molecule: TGI.
1. COc1cc(Nc2nc3ccccc3nc2-c2cccs2)cc(OC)c1OC
2. CCCCCCCCCCCCN(CC(O)C(O)C(OC1OC(CO)C(O)C(O)C1O)C(O)CO)C(=O)CCCCCCCCCCC (centres undefined)

Given back:
1. > 10 µM
2. 32.6 µM
